Each recorded value in this set is attributed to patent US20260226154A1.

Target: T1, PACAP38 (human, not fully specified)
T1 construct: The background says natural PACAP is alpha-amidated
T1 peptide: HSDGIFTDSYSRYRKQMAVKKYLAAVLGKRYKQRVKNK
Assay: SPR (Biacore S200) off-rate ranking, antibody captured from supernatant, single injection of 33.3 nM PACAP38
property: Kd (nM)
Reply numerically in nM, unit not repeated.

627C (antibody, V domains shown) VH: EVQLVQSGAEVKKPGSSVKVSCKASGGTFSDVYMHWVRQAPGQGLEWMGLIYPIFADTRYAQKFQGRVTITADESTSTAYMELSSLRSEDTAVYYCAIDQDGSFAYWGQGTLVTVSS VL: DIVMTQSPDSLAVSLGERATINCKSSQSLLDSDGKTYLNWLQQKPGQPPKRLIYWASTRESGVPDRFSGSGSGTDFTLTISSLQAEDVAVYYCWQGTWFDLTFGGGTKVEIKR: 0.0376

Proceed to the following item.
Entry 604C (antibody, V domains shown) VH: EVQLVQSGAEVKKPGSSVKVSCKASGGTFSDSYMHWVRQAPGQGLEWMGLIYPIFADTRYAQKFQGRVTITADESTSTAYMELSSLRSEDTAVYYCAIDQDGSFAYWGQGTLVTVSS VL: DIVMTQSPDSLAVSLGERATINCKSSQSLLDSDGKTYLNWLQQKPGQPPKRLIYWASTRESGVPDRFSGSGSGTDFTLTISSLQAEDVAVYYCWQGTWFDLTFGGGTKVEIK : reported Kd = ? 0.0197
